Data provenance is patent US20260216242A1.

Biological target: ALPP (Homo sapiens, UniProt P05187)
Sequence (P05187 with tags, fused parts or gaps): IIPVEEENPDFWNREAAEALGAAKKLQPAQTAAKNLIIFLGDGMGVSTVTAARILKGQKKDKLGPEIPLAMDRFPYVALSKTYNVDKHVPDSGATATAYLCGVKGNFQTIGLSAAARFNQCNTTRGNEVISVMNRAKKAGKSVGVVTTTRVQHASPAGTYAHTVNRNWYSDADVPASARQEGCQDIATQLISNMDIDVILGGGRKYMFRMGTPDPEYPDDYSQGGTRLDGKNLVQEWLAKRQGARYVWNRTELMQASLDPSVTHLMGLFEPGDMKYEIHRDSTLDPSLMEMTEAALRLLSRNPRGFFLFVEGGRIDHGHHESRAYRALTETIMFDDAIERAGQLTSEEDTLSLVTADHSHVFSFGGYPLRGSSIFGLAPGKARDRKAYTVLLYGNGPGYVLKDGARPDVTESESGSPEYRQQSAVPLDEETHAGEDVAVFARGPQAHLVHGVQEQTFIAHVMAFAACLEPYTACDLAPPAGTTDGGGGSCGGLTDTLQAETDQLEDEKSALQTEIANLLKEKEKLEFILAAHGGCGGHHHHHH
Test: BLI binding kinetics, human ALPP immobilised on AR2G sensors (KD / KD apparent)
Conditions: VHH domains

molecule	readoutUnits	hALPP Ka
B01: ALPP/ALPPL2 targeting VHH domain, SEQ ID NO: 20 (protein) VHH: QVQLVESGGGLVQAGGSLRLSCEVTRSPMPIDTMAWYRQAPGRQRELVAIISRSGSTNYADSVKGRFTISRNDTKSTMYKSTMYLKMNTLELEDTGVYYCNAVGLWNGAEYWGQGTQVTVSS	M⁻¹ s⁻¹	162000
F09: ALPP targeting VHH domain, SEQ ID NO: 36 (protein) VHH: QVQLVESGGGSVQAGGSLRLSCAASGPSLSNYAMGWFRQAPGKEREFVAGISWGGGRTSCTDSVKGRFTISRDNAKNTVYLQMNNLKPEDTGVYYCAGRYGRGRNVEYEYDYWGQGTQVTVSS	M⁻¹ s⁻¹	40600
